tested on: T47D; assay: Growth inhibition of human T47D cells at 10 uM after 48 hrs by sulforhodamine B assay; format: functional; conditions: read-out: GI
Can you tell me inhibition of growth at 10 µM for the items I'm about to list?

{"columns": ["smiles.repr", "obs.value"],
 "data": [
  ["CCOC(=O)c1cc(C(=O)N2c3ccccc3Sc3ccccc32)n2ccc(N(C)C)cc12", "14.7%"],
  ["CC(=O)c1cn(C(=O)N2c3ccccc3Sc3ccccc32)c2ccccc12", "25.1%"],
  ["O=C(c1cc2cc(F)ccc2[nH]1)N1c2ccccc2Sc2ccccc21", "10.1%"]
]}

Now turn to the next molecule.
Form field inhibition of growth at 10 µM, entry O=C(c1cnc2ccccn12)N1c2ccccc2Sc2ccccc21 : 19.2%

---

system: SF-295; assay: Growth inhibition of human SF295 cells at 10 uM after 48 hrs by sulforhodamine B assay; format: functional; details: SF-295, 48 h, read-out: GI
Can you tell me inhibition of growth at 10 µM for the items I'm about to list?
The answer consists of two parts: a number and, after it, its unit.

Example results:
{"columns": ["smiles.repr", "inhibition of growth at 10 µM"],
 "data": [
  ["O=C(c1cnc2ccccn12)N1c2ccccc2Sc2ccccc21", "16%"],
  ["CCOC(=O)c1cc(C(=O)N2c3ccccc3Sc3ccccc32)n2ccc(N(C)C)cc12", "22.8%"],
  ["CC(=O)c1cn(C(=O)N2c3ccccc3Sc3ccccc32)c2ccccc12", "0.9%"]
]}

Form field inhibition of growth at 10 µM, entry O=C(c1cc2cc(F)ccc2[nH]1)N1c2ccccc2Sc2ccccc21 : 5.7%

---

Can you tell me GI50 for the items I'm about to list?
tested on: SK-MEL-5; assay: Growth inhibition of human SK-MEL-5 cells after 48 hrs by sulforhodamine B assay; assay type: functional; settings: SK-MEL-5, 48 h
Answers are plain numbers, in nM.

{"columns": ["smiles.repr", "units.of.measure", "GI50"],
 "data": [
  ["COc1ccc(C(=O)N2c3ccccc3Sc3ccccc32)cc1F", "nM", 335],
  ["COc1c(F)ccc(C(=O)N2c3ccccc3Sc3ccccc32)c1F", "nM", 2950],
  ["CCOc1ccc(C(=O)N2c3ccccc3Sc3ccccc32)cc1Cl", "nM", 333],
  ["O=C(c1ccc2c(c1)Sc1ccccc1N2)c1c[nH]c2ccccc12", "nM", 408],
  ["CN(C)Cc1cn(C(=O)N2c3ccccc3Sc3ccccc32)c2ccccc12", "nM", 1600]
]}

Give me GI50 for each of these compounds, listed below.
1. COc1ccc(C(=O)N2c3ccccc3Sc3ccccc32)cc1N
2. COc1cc2cc(C(=O)N3c4ccccc4Sc4ccccc43)[nH]c2cc1OC
3. CCOC(=O)c1cc(C(=O)N2c3ccccc3Sc3ccccc32)n2c(C)cccc12

53
300
2550

---

Can you tell me GI50 for the items I'm about to list?
tested on: RXF 393; test: Growth inhibition of human RXF393 cells after 48 hrs by sulforhodamine B assay; assay type: functional; conditions: RXF 393, 48 h
Give bare numbers, in nM.

Example results:
{"columns": ["smiles.repr", "units.of.measure", "GI50"],
 "data": [
  ["COc1cc2cc(C(=O)N3c4ccccc4Sc4ccccc43)[nH]c2cc1OC", "nM", 363],
  ["COc1ccc(C(=O)N2c3ccccc3Sc3ccccc32)cc1N", "nM", 130],
  ["COc1c(F)ccc(C(=O)N2c3ccccc3Sc3ccccc32)c1F", "nM", 2290],
  ["CCOc1ccc(C(=O)N2c3ccccc3Sc3ccccc32)cc1Cl", "nM", 236],
  ["CCOC(=O)c1cc(C(=O)N2c3ccccc3Sc3ccccc32)n2c(C)cccc12", "nM", 2770]
]}

Give me GI50 for each of these compounds, listed below.
1. O=C(c1ccc2c(c1)Sc1ccccc1N2)c1c[nH]c2ccccc12
2. COc1ccc(C(=O)N2c3ccccc3Sc3ccccc32)cc1F

1270
272

Form field GI50, entry CN(C)Cc1cn(C(=O)N2c3ccccc3Sc3ccccc32)c2ccccc12 : 1210
